target_under_test: T1, major surface antigen 1 (SAG1) of Toxoplasma gondii (Toxoplasma gondii, UniProt P13664 48-336)
T1 chain: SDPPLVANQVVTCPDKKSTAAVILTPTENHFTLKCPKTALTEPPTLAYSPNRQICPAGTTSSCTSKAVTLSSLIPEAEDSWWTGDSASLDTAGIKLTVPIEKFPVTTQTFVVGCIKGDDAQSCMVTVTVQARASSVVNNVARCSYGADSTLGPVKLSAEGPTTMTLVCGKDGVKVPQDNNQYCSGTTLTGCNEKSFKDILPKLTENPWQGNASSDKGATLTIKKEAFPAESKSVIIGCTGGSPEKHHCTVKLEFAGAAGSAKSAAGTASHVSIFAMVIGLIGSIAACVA
test_method_notes: SPR; two-state fit (KDapp)
Field: Kd. Provide a value for each of the binders that follow.
Give bare numbers, in nM.

scFv S1A0 (scFv, V domains shown) VH: QVQLQQSGAELVRPGVSVKISCKGSGYTFTDYGMHWVKQSHAKSLEWIGIISTYSGDASYNQKFKGKATMTVDKSSSTAYMELARLTSEDSAIYYCARSSTWYYFDYWGQGTTLTVSS VL: DIQVTQTTSSLSASLGDRVTISCRASQDISNYLNWYQQKPDGTVKLLIYYTSRLHSGVPSRFSGSGSGTDYSLTISNLEQEDIATYFCQQGNTLPYTFGGGTKLEIK | 181
scFv S1C4 (scFv, V domains shown) VH: QVQLQQSGAELVRPGVSVKISCKGSGYTFTDYGMHWVKQRPGHGLEWIGIISTYSGDASYNQKFKGKATMTVDKSSSTAYMELARLTSEDSAIYYCARSSTWYYFDYWGQGTTLTVSS VL: DIQMTQTPSSLSASLGDRVTISCRASQDISNYLNWYQQKPDGTVKLLIYYTSRLHSGVPSRFSGSGSGTDYSLTISNLEPEDIATYYCQQGNTLPYTFGGGTKLEIK | 59
scFv S1B4 (scFv, V domains shown) VH: QVQLQQSGAELVRPGTSVKISCKASGYTFTDYGMHWVKQSHAKSLEWIGIISTYSGDASYNQKFKGKATMTVDKSSSTAYMQLSSLTSEDSAVYYCARSSTWYYFDYWGQGTLVTVSA VL: DIQMTQTPSSLSASLGDRVTISCRASQDISNYLNWYQQKPDGTVKLLIYYTSRLHSGVPSRFSGSGSGTDYSLTISNLEPEDIATYYCQQGNTLPYTFGGGTKLEIK | 329

Please turn your attention to the following entry.
# input Tell me its Kd given scFv S1A4 (scFv, V domains shown) VH: QVQLQQSGAELVRPGVSVKISCKGSGYTFTDYGMHWVKQSHAKSLEWIGIISTYSGDASYNQKFKGKATMTVDKSSSTAYMELARLTSEDSAIYYCARSSTWYYFDYWGQGTTLTVSS VL: DIQMTQTPSSLSASLGDRVTISCRASQDISNYLNWYQQKPDGTVKLLIYYTSRLHSGVPSRFSGSGSGTDYSLTISNLEPEDIATYYCQQGNTLPYTFGGGTKLEIK as the entry.
# output 117
